Listed binders paired with reported Ka
target: T1, Rae1(31-368)-Nup98(157-213) heterodimer (human, UniProt P78406 31-368; P52948 157-213); assay: ITC; settings: both partners purified
T1 construct: also called Rae1-Nup98; Rae1-Nup98 complex
T1 sequence (P78406 31-368, chain 1 of 2): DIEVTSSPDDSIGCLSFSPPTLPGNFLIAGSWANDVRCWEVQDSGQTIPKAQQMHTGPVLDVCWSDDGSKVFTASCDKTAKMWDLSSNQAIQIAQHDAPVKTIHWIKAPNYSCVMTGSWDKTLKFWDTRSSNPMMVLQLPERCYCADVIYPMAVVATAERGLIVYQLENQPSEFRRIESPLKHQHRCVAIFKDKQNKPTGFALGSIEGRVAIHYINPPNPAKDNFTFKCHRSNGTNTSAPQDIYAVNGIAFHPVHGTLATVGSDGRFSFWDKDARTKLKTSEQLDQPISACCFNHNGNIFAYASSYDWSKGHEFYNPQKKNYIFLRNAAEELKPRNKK
T1 sequence (P52948 157-213, chain 2 of 2): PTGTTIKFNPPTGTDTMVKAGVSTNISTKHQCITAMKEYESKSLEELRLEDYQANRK
Number in M⁻¹, nothing else.

Here is how some binders turned out for Ka.
{"binder": "ENKYSQLDEEQPMEID (source: synthetic peptide) [SARS-CoV-2 ORF6 C2]", "u": "M⁻¹", "Ka": "3.58e+06"}
{"binder": "SLTENKYSQLDEEQPMEID (source: synthetic peptide) [SARS-CoV-2 ORF6 C1]", "u": "M⁻¹", "Ka": "2.62e+06"}
{"binder": "YSQLDEEQPMEID (source: synthetic peptide) [SARS-CoV-2 ORF6 C3]", "u": "M⁻¹", "Ka": "4.12e+06"}

Then there is this binder:
Recorded Ka (binder DEEQPMEID (source: synthetic peptide) [SARS-CoV-2 ORF6 C4] ): 2.25e+06

Ref: paper PMC9376891
